- Tested on: HCT-116 colon
- ASSAY PROTOCOL: NCI-60 one-dose screen, 48 h
- TEST CONDITIONS: 10 µM unless noted
About 83,000 compounds went through this panel and 20% of them were active in at least one assay; those are over-represented in the sample as a whole. Calls of active or inactive are those of the source. How the source made its calls: active means growth percent below 10; inactive means the rest.
Reply using exactly one outcome from active, inactive

Here are 8 compounds together with their reported answers.
Write down the call the test reported for this compound. Item: Cc1ccc2c(c1)sc(-c1ccc(N(C)C)cc1)[n+]2C
active

Note, next up: CCCCC(C=O)(C=C=C(C)C)CC (stereo not drawn)
inactive

Note, next up: c1ccc(-c2cccc(-c3ccccn3)n2)nc1
active

Note, next up: CCCCCCCCCCCC(=O)OC(C)C(=O)NCCCC (stereo not drawn)
inactive

Note, next up: CN1CSC(=S)N(Cc2ccccc2)C1
inactive

Note, next up: CCN(CC)c1ccc(/C=C\C(=O)c2ccc(NC(C)=O)cc2)cc1
inactive

Note, next up: S=C1SCN(Cc2cccs2)CN1Cc1cccs1
inactive

Note, next up: CCCCCCC1N=C(N)N=C(N)N1c1cccc(Cl)c1 (stereo not drawn)
inactive

More entries:
Write down the call the test reported for this compound. Item: Cc1cc(C(N)=O)cc(C)c1C(=O)OCCCl
inactive

Note, next up: O=C1/C(=C/c2ccccc2)CCC/C1=C\c1ccccc1
active

Note, next up: O=C(O)c1cc2c(s1)C(=O)c1sccc1C2=O
active

Note, next up: COC(=O)c1nc(=S)[nH]c(C(=O)OC)c1C(=O)c1ccc(Cl)c(Cl)c1
inactive

---

- Tested on: SF-295 CNS
- ASSAY PROTOCOL: NCI-60 one-dose screen, 48 h (100 = growth as untreated, 0 = no growth, -100 = all killed)
- TEST CONDITIONS: 10 µM unless noted
Compounds without any hit were thinned out: in the full panel of roughly 83,000, 20% have a hit.
QUANTITY KIND: growth (%)
Numbers only, in %.

Entry CCOc1ccc(C(CN2CCOCC2)C(C)=O)cc1OC (stereo not drawn) : reported growth = ?
102

Hi team, please reply with growth for each item in this list.
1. Cc1cc(C(=C2C=CC(=Nc3ccccc3)C=C2)c2ccc(Nc3ccccc3)cc2)ccc1N
2. O=C(Cc1nc2cc(Cl)c(Cl)cc2nc1CC(=O)c1cccnc1)c1cccnc1

1: -71.9; 2: 94.1

---

- Tested on: MOLT-4 leukemia
- ASSAY PROTOCOL: NCI-60 one-dose screen, 48 h (100 = growth as untreated, 0 = no growth, -100 = all killed)
- TEST CONDITIONS: 10 µM unless noted
The panel holds about 83,000 compounds, 20% with a hit somewhere; the sample as a whole holds those more often.
Friendly reminder: growth below 80% is TRUE, at or above is FALSE.

Here are 4 compounds together with their reported answers.
I'd appreciate it if you could check whether CCCCOS(=O)(=O)c1ccccc1 has growth smaller than 80%.
FALSE

Note, next up: CCNc1nnnn1CC
FALSE

Note, next up: COc1c(C)c2c(c(O)c1C/C=C(\C)CCC(=O)O)C(=O)OC2
TRUE

Note, next up: CN(C)c1ccc(C(C#N)(c2ccccc2)c2ccc(N(C)C)cc2)cc1
TRUE

Then this compound:
I'd appreciate it if you could check whether O=C(Cc1nc2cc(Cl)c(Cl)cc2nc1CC(=O)c1ccccc1)c1ccccc1 has growth smaller than 80%.
TRUE
